# System: Streptococcus pneumoniae-induced pulmonary fibrosis model
# Test name: Streptococcus pneumoniae-induced pulmonary fibrosis model
# Assay type: in vivo, C57BL/6 mice
# Condition label: Streptococcus pneumoniae + bleomycin; lung tissue HE staining; 120 mg/kg/d intragastric, 14 days
Quick reference: Ashcroft scores of the listed items.
Reported endpoint: Ashcroft scores

1. CCCOc1ncnc2c1ncn2C(C)C [Compound 9] : 1.33
2. O=c1[nH]cnc2[nH]cnc12 [Hypoxanthine analogue A, reference compound] : 6.12
3. CC(C)Oc1ncnc2ncn(C(C)C)c12 [Compound 4] : 1.29
4. CCOc1ncnc2c1ncn2C(C)C [Compound 8] : 1.31
5. COC(=O)c1ccc2c(c1)NC(=O)/C2=C(\Nc1ccc(N(C)C(=O)CN2CCN(C)CC2)cc1)c1ccccc1 [Nintedanib, reference compound] : 4.55
